Values from patent US20100092526A1

test system: Haemophilus influenzae; assay: Susceptibility (MIC/MBC) of H. influenzae clinical isolates; type: cell-based; conditions: Haemophilus influenzae, strain 33; nanoemulsion values as μg CPC/ml or μg BA/ml
Readout Type: MIC
A complete answer gives the number followed by the unit.

Consider the compound CN(C)[C@@H]1C(O)=C(C(N)=O)C(=O)[C@@]2(O)C(O)=C3C(=O)c4c(O)cccc4[C@@](C)(O)[C@H]3C[C@@H]12 and give its recorded MIC.
1 µg/mL

Consider the compound CO/N=C(\C(=O)N[C@@H]1C(=O)N2C(C(=O)[O-])=C(C[N+]3(C)CCCC3)CS[C@H]12)c1csc(N)n1 [Cefepime] and give its recorded MIC.
0.0625 µg/mL

Consider the compound CC1(C)S[C@@H]2[C@H](NC(=O)[C@H](N)c3ccccc3)C(=O)N2[C@H]1C(=O)O and give its recorded MIC.
0.25 µg/mL

Consider the compound CCC[C@@H]1C[C@@H](C(=O)N[C@@H]([C@H]2O[C@H](SC)[C@H](O)[C@@H](O)[C@H]2O)[C@H](C)Cl)N(C)C1 and give its recorded MIC.
16 µg/mL

Consider the compound CC[C@H]1OC(=O)[C@H](C)[C@@H](O[C@H]2C[C@@](C)(OC)[C@@H](O)[C@H](C)O2)[C@H](C)[C@@H](O[C@@H]2O[C@H](C)C[C@H](N(C)C)[C@H]2O)[C@](C)(O)C[C@@H](C)CN(C)[C@H](C)[C@@H](O)[C@]1(C)O and give its recorded MIC.
1 µg/mL

----------
tested on: Pseudomonas aeruginosa; assay: MIC/MBC against CF isolates (CLSI, alamar blue); details: Pseudomonas aeruginosa, CF Pseudomonas isolate NB1
Give measured MIC for each item. Keep answers brief.

Consider the compound C[C@H]1COc2c(N3CCN(C)CC3)c(F)cc3c(=O)c(C(=O)O)cn1c23 and give its recorded MIC.
0.5 µg/mL

Consider the compound NC[C@H]1O[C@H](O[C@H]2[C@H](O)[C@@H](O[C@H]3O[C@H](CO)[C@@H](O)[C@H](N)[C@H]3O)[C@H](N)C[C@@H]2N)[C@H](N)C[C@@H]1O and give its recorded MIC.
1 µg/mL

Consider the compound C[C@@H](O)[C@H]1C(=O)N2C(C(=O)O)=C(SCCN=CN)C[C@H]12 and give its recorded MIC.
1 µg/mL

Consider the compound CO[C@@]1(NC(=O)Cc2cccs2)C(=O)N2C(C(=O)O)=C(COC(N)=O)CS[C@@H]21 and give its recorded MIC.
> 256 µg/mL

----------
tested on: Pseudomonas aeruginosa; assay: MIC/MBC of nanoemulsions against gram-negative isolates (CLSI, alamar blue); format: cell-based; settings: Pseudomonas aeruginosa (n = 5)
Readout Type: % resistant (%)
Expressed in %, but write only the number.

GET % resistant | system: Pseudomonas aeruginosa | item: C[C@H]1COc2c(N3CCN(C)CC3)c(F)cc3c(=O)c(C(=O)O)cn1c23 [Levofloxacin]
0.0

GET % resistant | system: Pseudomonas aeruginosa | item: C[C@@H](O)[C@H]1C(=O)N2C(C(=O)O)=C(SCCN=CN)C[C@H]12 [Imipenem]
20.0

GET % resistant | system: Pseudomonas aeruginosa | item: CN(C)[C@@H]1C(O)=C(C(N)=O)C(=O)[C@@]2(O)C(O)=C3C(=O)c4c(O)cccc4[C@@](C)(O)[C@H]3C[C@@H]12 [Tetracycline]
40.0
